Tested On: mAChR rM4 (Rattus norvegicus, UniProt P08485)
Construct: expressed in transfected cells
Sequence (P08485 1-478): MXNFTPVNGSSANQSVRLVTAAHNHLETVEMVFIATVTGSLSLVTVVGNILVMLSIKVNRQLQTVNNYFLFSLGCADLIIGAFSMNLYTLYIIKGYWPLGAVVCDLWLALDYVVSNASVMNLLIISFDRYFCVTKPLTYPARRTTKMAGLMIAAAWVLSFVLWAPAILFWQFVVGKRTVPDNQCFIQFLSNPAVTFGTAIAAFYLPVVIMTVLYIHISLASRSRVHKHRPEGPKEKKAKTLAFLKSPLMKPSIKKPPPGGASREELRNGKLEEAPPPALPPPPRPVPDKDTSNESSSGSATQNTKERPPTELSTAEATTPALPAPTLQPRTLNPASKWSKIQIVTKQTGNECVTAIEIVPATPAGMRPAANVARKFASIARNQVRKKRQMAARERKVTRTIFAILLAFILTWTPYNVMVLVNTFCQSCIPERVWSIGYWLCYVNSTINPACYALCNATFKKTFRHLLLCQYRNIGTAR
Procedure Summary: mAChR rM4 cell-based functional assay (calcium mobilization, potentiation of EC20 acetylcholine response)
Recorded Conditions: rM4-transfected CHO-K1 cells, positive allosteric modulation of EC20 ACh response; read-out: EC50
Measured Parameter: pEC50
# reply with the number alone; pEC50 is -log10 of concentration in mol/L

Some solved cases for reference:
# Compound Structure String, Endpoint Result
rows = [
    ("Cc1cc(CNc2nn(C)c3c2sc2nnc(C)c(C)c23)no1", 6.30),
    ("Cc1ncsc1CNc1nn(C)c2c1sc1nnc(C)c(C)c12", 7.26),
    ("Cc1nnc2sc3c(NC4CNC4)nn(C)c3c2c1C", 5.85),
]

Turning now to a further compound:
q: Give the measured pEC50 of COc1ccc(CNc2nn(C)c3c2sc2nnc(C)c(C)c23)cc1 .
a: 7.32

* * *

Tested On: mAChR rM4 (Rattus norvegicus)
Construct: expressed in transfected cells
Sequence (P08485 1-478): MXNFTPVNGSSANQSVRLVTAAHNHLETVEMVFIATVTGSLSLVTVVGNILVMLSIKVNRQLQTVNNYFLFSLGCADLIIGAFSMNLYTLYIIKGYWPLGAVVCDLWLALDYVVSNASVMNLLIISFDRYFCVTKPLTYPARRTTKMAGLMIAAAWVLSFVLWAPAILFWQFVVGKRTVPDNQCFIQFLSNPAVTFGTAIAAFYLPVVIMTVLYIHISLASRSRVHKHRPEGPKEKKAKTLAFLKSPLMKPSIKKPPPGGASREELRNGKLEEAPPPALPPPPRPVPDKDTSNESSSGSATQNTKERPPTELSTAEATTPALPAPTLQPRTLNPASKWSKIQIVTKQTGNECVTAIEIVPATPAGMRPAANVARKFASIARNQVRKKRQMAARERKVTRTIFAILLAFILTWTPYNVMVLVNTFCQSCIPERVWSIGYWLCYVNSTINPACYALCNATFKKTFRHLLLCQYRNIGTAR
Procedure Summary: mAChR rM4 cell-based functional assay (calcium mobilization, potentiation of EC20 acetylcholine response)
Recorded Conditions: %ACh maximum at 30 μM
Emax at 30 µM for assorted compounds

Recorded results for 5 compounds are shown here.
# Compound, Endpoint Result
rows = [
    ("Cc1cc(CNc2nn(C)c3c2sc2nnc(C)c(C)c23)no1 [Compound 12]", "55%"),
    ("Cc1nnc2sc3c(NCc4ccco4)nn(C)c3c2c1C [Compound 4]", "50%"),
    ("Cc1nnc2sc3c(NCc4ccc5c(c4)OCCO5)nn(C)c3c2c1C [Compound 13]", "55%"),
    ("Cc1nnc2sc3c(NCC4CC4)nn(C)c3c2c1C [Compound 3]", "46%"),
    ("Cc1nnc2sc3c(NC4CNC4)nn(C)c3c2c1C [Compound 16]", "51%"),
]

q: So what's the measured Emax at 30 µM for this one? Cc1ncsc1CNc1nn(C)c2c1sc1nnc(C)c(C)c12 [Compound 11]
a: 56%

* * *

Tested On: mAChR rM4 (Rattus norvegicus, UniProt P08485)
Construct: expressed in transfected cells
Procedure Summary: mAChR rM4 cell-based functional assay (calcium mobilization, potentiation of EC20 acetylcholine response)
Recorded Conditions: rM4-transfected CHO-K1 cells, positive allosteric modulation of EC20 ACh response; read-out: EC50
Measured Parameter: pEC50
Formally, pEC50 is defined as -log10 of the concentration c, with c in mol/L.

q: Suppose we examine the molecule CC(=O)N1CC(Nc2nn(C)c3c2sc2nnc(C)c(C)c23)C1 ; what pEC50 value has been reported?
a: 6.77

q: Same thing, different molecule: Cc1nnc2sc3c(NC4CCN(S(C)(=O)=O)CC4)nn(C)c3c2c1C
a: 5.96

q: Cc1nnc2sc3c(NC4CCSC4)nn(C)c3c2c1C (stereo not shown) , same question.
a: 7.01

q: Field entry: Cc1nnc2sc3c(NCC4CCN(C(=O)OC(C)(C)C)CC4)nn(C)c3c2c1C
a: 6.15

* * *

Tested On: mAChR rM4 (Rattus norvegicus)
Construct: expressed in transfected cells
Procedure Summary: mAChR rM4 cell-based functional assay (calcium mobilization, potentiation of EC20 acetylcholine response)
Recorded Conditions: rM4-transfected CHO-K1 cells, positive allosteric modulation of EC20 ACh response; read-out: pEC50 (converted)
Measured Parameter: EC50 (nM)
Lab book: enter the figure in nM, no units written.

See these solved cases before continuing.
# Compound Structure String, Measured Parameter, Reading Unit, Endpoint Result
records = [
    ("Cc1nnc2sc3c(NCc4ccc5c(c4)OCCO5)nn(C)c3c2c1C", "EC50", "nM", 12.9),
    ("Cc1nnc2sc3c(NCc4cccs4)nn(C)c3c2c1C", "EC50", "nM", 30.9),
]

Could you now consider this next compound?
q: Tell me the measured EC50 of Cc1nnc2sc3c(NC4CN(C(=O)OC(C)(C)C)C4)nn(C)c3c2c1C , please.
a: 25.1

* * *

This listing pairs molecules with measured Emax at 30 µM.
Tested On: mAChR rM4 (Rattus norvegicus, UniProt P08485)
Construct: expressed in transfected cells
Procedure Summary: mAChR rM4 cell-based functional assay (calcium mobilization, potentiation of EC20 acetylcholine response)
Recorded Conditions: %ACh maximum at 30 μM
Experimental: Chinese hamster ovary (CHO-K1) cells stably expressing rat (r)M1 were purchased from the American Type Culture Collection and cultured according to their indicated protocol. […] Calcium flux was measured using the Functional Drug Screening System (FDSS) 6000 (Hamamatsu Corporation, Tokyo, Japan) as an increase in the fluorescent static ratio. […] Agonist activity was analyzed as a concentration-dependent increase in calcium mobilization upon compound addition. […]
Write the number in % without appending the unit.

# Molecule, Tested On, Emax at 30 µM / %
rows = [
    ("COc1ccc(CNc2nn(C)c3c2sc2nnc(C)c(C)c23)cc1", "mAChR rM4 (Rattus norvegicus, UniProt P08485)", 55),
    ("CC(=O)N1CC(Nc2nn(C)c3c2sc2nnc(C)c(C)c23)C1", "mAChR rM4 (Rattus norvegicus, UniProt P08485)", 69),
    ("Cc1nnc2sc3c(NC4CCN(S(C)(=O)=O)CC4)nn(C)c3c2c1C", "mAChR rM4 (Rattus norvegicus, UniProt P08485)", 58),
    ("Cc1nnc2sc3c(NC4CN(C(=O)OC(C)(C)C)C4)nn(C)c3c2c1C", "mAChR rM4 (Rattus norvegicus, UniProt P08485)", 58),
]

q: Given the molecule Cc1nnc2sc3c(NC4CCN(C(=O)OC(C)(C)C)CC4)nn(C)c3c2c1C , what is its reported Emax at 30 µM?
a: 47

q: Next molecule up: Cc1nnc2sc3c(NCc4ccc(S(C)(=O)=O)cc4)nn(C)c3c2c1C
a: 57

q: Note, next up: CC(=O)N1CCC(Nc2nn(C)c3c2sc2nnc(C)c(C)c23)CC1
a: 51

q: // same read-out, input: Cc1nnc2sc3c(NCc4ccoc4)nn(C)c3c2c1C
a: 60

q: Follow-up entry: Cc1nnc2sc3c(NC4CN(S(C)(=O)=O)C4)nn(C)c3c2c1C
a: 64

q: Moving on to the next molecule: Cc1nnc2sc3c(NC4CCOC4)nn(C)c3c2c1C (centres unmarked)
a: 55

q: // repeat for Cc1nnc2sc3c(NCc4cccs4)nn(C)c3c2c1C and report
a: 53

q: Try CC(=O)N1CCC(CNc2nn(C)c3c2sc2nnc(C)c(C)c23)CC1 next.
a: 44

q: Entry to check: Cc1nnc2sc3c(NCC4CCN(S(C)(=O)=O)CC4)nn(C)c3c2c1C
a: 61

q: // query: Cc1nnc2sc3c(NCc4ccc(F)c(S(C)(=O)=O)c4)nn(C)c3c2c1C
a: 54

q: And what about the molecule Cc1nnc2sc3c(NC4CCSC4)nn(C)c3c2c1C (centres unmarked) ?
a: 56

q: How about Cc1nnc2sc3c(NC4CCNCC4)nn(C)c3c2c1C ?
a: 31

q: And the next one, Cc1nnc2sc3c(NCC4CCN(C(=O)OC(C)(C)C)CC4)nn(C)c3c2c1C ?
a: 42
